System: NCI-H522
Assay: NCI tumour cell line growth inhibition, 48 h
The source made the active and inactive calls. Cut-off read from the data, not from the text of the source: active = GI50 up to about 1.1 µM and inactive = higher.
Possible outcomes: active, inactive

COC(=O)c1cc(C(=O)OC)cc(-c2ccc3c(c2)-c2nc4c(c(-c5ccc(OC)cc5)c2CC3)CCc2ccc(-c3cc(C(=O)OC)cc(C(=O)OC)c3)cc2-4)c1 : inactive
CC(=O)CC1(O)C(=O)c2c(Br)sc(Br)c2C1=O : inactive
CCCCCCCCCCCCOC1C(COCCN2CCCC2)OC2OC(C)(C)OC21 (stereo unspecified) : inactive
COc1cccc(C(=O)N[C@@H]2[C@H](O)[C@@H](CO)O[C@H]2n2cnc3c(N)ncnc32)c1 : inactive
O=C(O)CCCCC1CCSS1 (stereo not drawn) [LIPOIC ACID, ALPHA] : inactive
COc1ccc(S(=O)(=O)NNS(C)(=O)=O)cc1 : inactive
Clc1ccc(Cl)c(Nc2ccnc(SCc3ccccc3)n2)c1 : inactive
CCNC(=S)NNC(=O)CSc1nc2ccc(I)cc2c(=O)n1Cc1ccccc1 : inactive
O=C(O)c1ccccc1/C=N/N=C1c2ccccc2-c2ccccc21 : inactive
CC(NC(=O)C(Cc1ccc(OC(=O)c2ccccc2)cc1)NC(=O)OC(C)(C)C)C(=O)NCC(=O)NC(Cc1ccccc1)C(=O)NN (stereo unspecified) : inactive
O=C(NC/C=C/Br)NC1CCNc2ccccc21 (stereo unspecified) : inactive
COc1cc(N(CCC#N)CCC#N)ccc1C(/N=N/c1cccc(C)c1)=N\NC(=O)c1ccc(C)cc1 : inactive
Cn1ncc2c(c1=O)Nc1ccccc1S2(=O)=O : inactive
COc1ccc(C(=O)/C(Br)=C/C(=O)O)cc1 : inactive
Oc1ccccc1/C=N/N1C(=S)N(c2ccccc2)C(=N\c2ccccc2)/C1=N/c1ccccc1 : inactive
NCCCNCCSSCc1ccccc1CSSCCNCCCN : inactive
CC1(C)N=C(N)N=C(N)N1c1ccc(OCCCOc2ccccc2)c(Cl)c1 : active
O=[N+]([O-])C(Cl)C(Cl)C(Cl)=C(Cl)Cl (stereo unspecified) : inactive
O=C1Nc2ccccc2S/C1=C\c1ccccc1C(F)(F)F : inactive
Cc1cc(NC(=O)NC(=O)c2ccccc2N(C)C)ccc1Oc1ncc(Br)cn1 : active
O=C(Nc1ccc2ncccc2c1)Nc1ccc2ncccc2c1 : inactive
